Property Label: melting point

Reference set, count: 5
Compound: CC1(C)OC(=S)Nc2ccc(-c3cc(Br)cc(OC(F)(F)F)c3)cc21
melting point: 192 to 193 °C
--
Compound: COC(=O)C(O)C(=O)C(C)Oc1ccc(Oc2nc3ccc(Cl)cc3s2)cc1 (centres undefined)
melting point: 104 to 106 °C
--
Compound: CNS(=O)(=O)Cc1ccc2[nH]cc(CC(=O)O)c2c1
melting point: 126 to 133 °C
--
Compound: Cc1c[nH]c(Cc2ccccc2NC(=O)N2CCN(C)CC2)n1
melting point: 177 to 179 °C
--
Compound: COC(=O)c1ccc(OC)c(/C=C/C(=O)N(C(C)C)C(C)C)c1
melting point: 139 to 140 °C

Q: Using the record for Cc1ccccc1S(=O)(=O)c1cc2c(cc1C)OC(C(=O)O)O2 (centres undefined) , report its melting point.
A: 178 to 180 °C

Q: // same read-out, input: `S=c1[nH]ccc2ccsc12`
A: 187 to 189 °C

Q: // same read-out, input: CC1(C)CCCNC1C(=O)O (centres undefined)
A: > 305 °C

Q: // same read-out, input: `COCc1c(C(=O)OC(C)C)ncc2[nH]c3cccc(-c4cccnc4)c3c12`
A: 187 to 188 °C

Q: // same read-out, input: OC(CCl)CN(CC(O)CCl)c1ccccc1 (centres undefined)
A: 60 °C

Q: // same read-out, input: `CC(C)(C)c1cc(NC(=O)NCc2ccc([N+](=O)[O-])cc2)cc(C(C)(C)C)c1O`
A: 240 to 241 °C

Q: // same read-out, input: O=C(SCC(Cc1ccc(Cl)cc1)C(=O)O)c1ccccc1 (centres undefined)
A: 111 to 114 °C

Q: // same read-out, input: CCCCCCCCCCCCCCCCC(C(=O)OC)S(C)=O (centres undefined)
A: 56 to 57 °C

Q: // same read-out, input: `NNc1cc2c(nn1)CCN(C(=O)c1cccc(Cl)c1)C2`
A: 178 to 180 °C

Q: // same read-out, input: `O=[N+]([O-])c1ccccc1-c1ccno1`
A: 66 to 69 °C

Q: // same read-out, input: `Cc1c(NC(=O)c2ccc(OC[C@@H]3CCCO3)cc2)ccc2cc(CNCC3(C)COC3)cnc12`
A: 117 to 119 °C

Q: // same read-out, input: `N#Cc1cscc1C#N`
A: 170 to 171 °C

Q: // same read-out, input: `CCOCc1nc2cnc(C)c(C)c2n1NC1CCOCC1`
A: 94 to 97 °C
